All figures here come from patent US20150031674A1.

Molecular target: human recombinant PAK1-KD protein (Homo sapiens)
Sequence (Q13153 270-521 limits assumed): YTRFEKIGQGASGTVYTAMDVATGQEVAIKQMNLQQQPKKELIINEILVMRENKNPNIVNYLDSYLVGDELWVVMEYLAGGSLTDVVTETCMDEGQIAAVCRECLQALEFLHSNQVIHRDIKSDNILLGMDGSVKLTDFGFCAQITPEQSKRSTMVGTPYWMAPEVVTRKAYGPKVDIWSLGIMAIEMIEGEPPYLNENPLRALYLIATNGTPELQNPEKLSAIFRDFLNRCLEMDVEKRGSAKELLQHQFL
Assay: PAK1-KD (Kinase Domain) IC50 Zlyte Assay (FRET peptide substrate phosphorylation)
Details: Z'-LYTE, Biological Example 1
pKi: −log10 of the molar value.
pKi values for the molecules below.
Recorded endpoint: pKi

>>> print(df.to_string())
                                    molecule  recorded_endpoint   val
 0  Cc1cncc(-c2ccc(-c3cc4cnc(NC5COC5)nc4n(C[C@H]4CNCCO4)c3=O)c(Cl)c2)n1                pKi  7.97
 1  CNc1ncc2cc(-c3ccc(-c4cncc(C)n4)cc3Cl)c(=O)n(C[C@H]3OC[C@H](NC)CO3)c2n1                pKi  7.87
 2  Cc1cccc(-c2ccc(-c3cc4cnc(NC5COC5)nc4n(C[C@@H]4CNCCO4)c3=O)c(Cl)c2)n1                pKi  8.09
 3  CNc1ncc2cc(-c3ccc(-c4cccc(C)n4)cc3Cl)c(=O)n(CC3(C#N)CCNCC3)c2n1                pKi  7.92
 4  CCNc1ncc2cc(-c3ccc(-c4cncc(C)n4)cc3Cl)c(=O)n(CCC3CNCCO3)c2n1 (single isomer, unassigned) [Example I-21]                pKi  8.01
 5  CCNc1ncc2cc(-c3ccc(-c4cncc(C)n4)cc3Cl)c(=O)n(C3CCN(C(=O)CN)CC3)c2n1                pKi  7.77
 6  CCNc1ncc2cc(-c3ccc(-c4cncc(C)n4)cc3Cl)c(=O)n(CC3C4CN(C)CC43)c2n1 (centres unmarked)                pKi  7.93
 7  CCNc1ncc2cc(-c3ccc(-c4cncc(C)n4)cc3Cl)c(=O)n(CCN3CCNCC3)c2n1                pKi  8.19
 8  CNc1ncc2cc(-c3ccc(-c4cncc(C)n4)cc3Cl)c(=O)n(CCCN)c2n1                pKi  7.86
 9  CNc1ncc2cc(-c3ccc(-c4cncc(C)n4)cc3Cl)c(=O)n(CCOC3CNC3)c2n1                pKi  7.86
10  CNc1ncc2cc(-c3ccc(-c4cncc(C)n4)cc3Cl)c(=O)n(CCC3OCC(N)CO3)c2n1 (centres unmarked)                pKi  8.12
